koff by entry:
Target: T1, human CD33 extracellular domain (human, UniProt P20138 18-259)
T1 construct: soluble monomeric ECD; also called human CD33 ECD; hCD33
Assay: SPR, Fab captured, 37C;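 also: fabs captured on an anti-Fab surface, soluble monomeric CD33 ECD flowed over at several concentrations, double-referenced curves fit to a 1:1 binding model, KD taken as koff/kon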

Binder	Result
ADI-11826 Fab (Fab, V domains shown, Fab fragment; also called Ab26) VH: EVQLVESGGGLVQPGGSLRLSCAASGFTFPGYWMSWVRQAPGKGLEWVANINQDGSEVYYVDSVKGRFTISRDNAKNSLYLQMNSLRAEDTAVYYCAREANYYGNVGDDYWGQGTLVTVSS VL: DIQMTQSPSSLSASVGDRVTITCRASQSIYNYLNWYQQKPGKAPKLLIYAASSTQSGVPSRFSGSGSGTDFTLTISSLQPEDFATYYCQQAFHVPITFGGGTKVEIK	0.00463 s⁻¹

// switching to the query binder
Identify the reported koff for the following entry. ADI-11809 Fab (Fab, V domains shown, Fab fragment; also called Ab6) VH: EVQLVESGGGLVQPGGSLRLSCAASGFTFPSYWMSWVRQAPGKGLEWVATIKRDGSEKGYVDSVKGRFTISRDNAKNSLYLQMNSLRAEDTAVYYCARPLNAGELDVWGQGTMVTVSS VL: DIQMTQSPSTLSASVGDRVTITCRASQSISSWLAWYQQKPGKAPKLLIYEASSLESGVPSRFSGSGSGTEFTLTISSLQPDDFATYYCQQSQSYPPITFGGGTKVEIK
1.23e-06 s⁻¹
